The reader will find reported Specificity constant kcat/KM (RCM-T1 refolding assay) values listed item by item below.
Molecular target: T1, reduced and carboxymethylated (S54G, P55N)-RNase T1, P00651
T1 chain: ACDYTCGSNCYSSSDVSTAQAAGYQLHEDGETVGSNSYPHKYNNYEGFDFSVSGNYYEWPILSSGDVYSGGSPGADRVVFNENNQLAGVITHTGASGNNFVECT

Study these solved cases before continuing.
{"protein": "SlyD* ΔIF loop (protein) MKVAKDLVVSLAYQVRTEDGVLVDESPVSAPLDYLHGHGSLISGLETALEGHEVGDKFDVAVGANDAYGATGHPGIIPPHATLKFNVEVVAIREATEEELAHGHVHGAHDHHHDHDHDHHHHHH", "reading": "500 M⁻¹ s⁻¹"}
{"protein": "hFKBP12-IF1 (C22A) (protein) GVQVETISPGDGRTFPKRGQTAVVHYTGMLEDGKKFDSSRDRNKPFKFMLGKQEVIRGWEEGVAQMSVGQRAKLTISPDYAYGQYDENLVQRVPKDVFMGVDELQVGMRFLAETDQGPVPVEITAVEDDHVVVDGNHMLAGQNLVFDVELLKLEHHHHHH", "reading": "2.5e+06 M⁻¹ s⁻¹"}
{"protein": "SlpA (protein) SESVQSNSAVLVHFTLKLDDGTTAESTRNNGKPALFRLGDASLSEGLEQHLLGLKVGDKTTFSLEPDAAFGVPSPDLIQYFSRREFMDAGEPEIGAIMLFTAMDGSEMPGVIREINGDSITVDFNHPLAGQTVHFDIEVLEIDPALEAHHHHHH", "reading": "< 1000 M⁻¹ s⁻¹"}
{"protein": "TcFKBP18 (protein) MKVEAGDYVLFHYVGRFEDGEVFDTSYEEIARENGILVEEREYGPMWVRIGVGEIIPGLDEAIIGMEAGEKKTVTVPPEKAYGMPNPELVISVPREEFTKAGLEPQEGLYVMTDSGIAKIVSVGESEVSLDFNHPLAGKTLVFEVEVIEVKKAEEDSEA", "reading": "600000 M⁻¹ s⁻¹"}

Please look at the following protein next.
Query SlyD* (SlyD 1-165) (protein) MKVAKDLVVSLAYQVRTEDGVLVDESPVSAPLDYLHGHGSLISGLETALEGHEVGDKFDVAVGANDAYGQYDENLVQRVPKDVFMGVDELQVGMRFLAETDQGPVPVEITAVEDDHVVVDGNHMLAGQNLKFNVEVVAIREATEEELAHGHVHGAHDHHHDHDHDHHHHHH yields Specificity constant kcat/KM (RCM-T1 refolding assay) of 680000 M⁻¹ s⁻¹
